- test_details: method code SF-FL/RC, from DOI: 10.1007/bf00499868, PMID: 43479
- experimental_parameters: pH 7.4
Hi there, I'd appreciate the recorded logD for every entry that follows.
# print the numeric value only

Task: Supply recorded logD for COc1cc(CCO)ccc1O here.
Result: 0.47

Task: Supply recorded logD for COc1cc(C(O)CO)ccc1O (stereo not drawn) here.
Result: -0.58

Task: Supply recorded logD for OCC(O)c1ccc(O)c(O)c1 (stereo not drawn) here.
Result: -1.01

====

Hi there, I'd appreciate the recorded logP for every entry that follows.
- test_details: method code SF-FL/RC, from DOI: 10.1007/bf00499868, PMID: 43479
# print the numeric value only

Task: Supply recorded logP for CC(N)C(O)c1ccc(O)c(O)c1 (stereo not drawn) here.
Result: -1.43

Task: Supply recorded logP for COc1cc(C(O)CN)ccc1O (stereo not drawn) here.
Result: -1.05

Task: Supply recorded logP for C[C@H](N)[C@H](O)c1cccc(O)c1 here.
Result: -0.27

Task: Supply recorded logP for CNCC(O)c1ccc(O)c(OC)c1 (stereo not drawn) here.
Result: -0.64

Task: Supply recorded logP for COc1cc(CCN)ccc1O here.
Result: -0.08

Task: Supply recorded logP for NCC(O)c1ccc(O)cc1 (stereo not drawn) here.
Result: -0.75

Task: Supply recorded logP for CNC[C@H](O)c1ccc(O)c(O)c1 here.
Result: -1.37

Task: Supply recorded logP for CNCC(O)c1ccc(O)cc1 (stereo not drawn) here.
Result: -0.45
